Hey, just so you know, these numbers are from ChEMBL document CHEMBL1146231.

tested on: Enterococcus faecalis; experiment: Antimicrobial activity against vancomycin-susceptible Enterococcus faecalis 559 isolate; type: functional
assay endpoint: MIC (µg/mL)

1) CN[C@H](CC(C)C)C(=O)N[C@H]1C(=O)N[C@@H](CC(N)=O)C(=O)N[C@H]2C(=O)N[C@H]3C(=O)N[C@H](C(=O)N[C@H](C(=O)NC4C5CC6CC(C5)CC4C6)c4cc(O)cc(O)c4-c4cc3ccc4O)[C@H](O)c3ccc(c(Cl)c3)Oc3cc2cc(c3O[C@H]2O[C@@H](CO)[C@H](O)[C@@H](O)[C@@H]2O[C@H]2C[C@@](C)(N)C(O)[C@@H](C)O2)Oc2ccc(cc2Cl)[C@H]1O (stereo partly specified)
0.5

====

test: Volume of distribution in BALB/c mouse at 25 mg/kg, iv; type: ADME, organism-based; design: dose 25 mg/kg, route intravenous; settings: in vivo, read-out: Vss
assay endpoint: Vd (L/kg)

1. CN[C@H](CC(C)C)C(=O)N[C@H]1C(=O)N[C@@H](CC(N)=O)C(=O)N[C@H]2C(=O)N[C@H]3C(=O)N[C@H](C(=O)N[C@H](C(=O)NC45CC6CC(CC(C6)C4)C5)c4cc(O)cc(O)c4-c4cc3ccc4O)[C@H](O[C@@H]3C[C@@](C)(N)[C@H](O)[C@@H](C)O3)c3ccc(cc3)Oc3cc2cc(c3O[C@H]2O[C@@H](CO)[C@H](O)[C@@H](O)[C@@H]2O[C@H]2C[C@](C)(N)[C@@H](O)[C@H](C)O2)Oc2ccc(cc2Cl)[C@H]1O
2.18

====

assay: Half life in BALB/c mouse at 25 mg/kg, iv; type: ADME, organism-based; parameters: dose 25 mg/kg, route intravenous; conditions: in vivo
assay endpoint: half-life

1) CN[C@H](CC(C)C)C(=O)N[C@H]1C(=O)N[C@@H](CC(N)=O)C(=O)N[C@H]2C(=O)N[C@H]3C(=O)N[C@H](C(=O)N[C@H](C(=O)NC45CC6CC(CC(C6)C4)C5)c4cc(O)cc(O)c4-c4cc3ccc4O)[C@H](O[C@@H]3C[C@@](C)(N)[C@H](O)[C@@H](C)O3)c3ccc(cc3)Oc3cc2cc(c3O[C@H]2O[C@@H](CO)[C@H](O)[C@@H](O)[C@@H]2O[C@H]2C[C@](C)(N)[C@@H](O)[C@H](C)O2)Oc2ccc(cc2Cl)[C@H]1O
168 min

====

experiment: Bioavailability in BALB/c mouse at 25 mg/kg, sc; format: ADME, organism-based; conditions: in vivo
assay endpoint: bioavailability

1) CN[C@H](CC(C)C)C(=O)N[C@H]1C(=O)N[C@@H](CC(N)=O)C(=O)N[C@H]2C(=O)N[C@H]3C(=O)N[C@H](C(=O)N[C@H](C(=O)NC45CC6CC(CC(C6)C4)C5)c4cc(O)cc(O)c4-c4cc3ccc4O)[C@H](O[C@@H]3C[C@@](C)(N)[C@H](O)[C@@H](C)O3)c3ccc(cc3)Oc3cc2cc(c3O[C@H]2O[C@@H](CO)[C@H](O)[C@@H](O)[C@@H]2O[C@H]2C[C@](C)(N)[C@@H](O)[C@H](C)O2)Oc2ccc(cc2Cl)[C@H]1O
78%

====

experiment: Cmax in BALB/c mouse at 25 mg/kg, ip; type: ADME, organism-based; design: dose 25 mg/kg, route intraperitoneal; settings: in vivo
assay endpoint: Cmax (ng/mL)

1) CN[C@H](CC(C)C)C(=O)N[C@H]1C(=O)N[C@@H](CC(N)=O)C(=O)N[C@H]2C(=O)N[C@H]3C(=O)N[C@H](C(=O)N[C@H](C(=O)NC45CC6CC(CC(C6)C4)C5)c4cc(O)cc(O)c4-c4cc3ccc4O)[C@H](O[C@@H]3C[C@@](C)(N)[C@H](O)[C@@H](C)O3)c3ccc(cc3)Oc3cc2cc(c3O[C@H]2O[C@@H](CO)[C@H](O)[C@@H](O)[C@@H]2O[C@H]2C[C@](C)(N)[C@@H](O)[C@H](C)O2)Oc2ccc(cc2Cl)[C@H]1O
9700

====

Listing of entries alongside the reported MIC.
system: Enterococcus faecalis; assay: Antimicrobial activity against vancomycin-susceptible Enterococcus faecalis 559 isolate; type: functional
assay endpoint: MIC (µg/mL)

1. CN[C@H](CC(C)C)C(=O)N[C@H]1C(=O)N[C@@H](CC(N)=O)C(=O)N[C@H]2C(=O)N[C@H]3C(=O)N[C@H](C(=O)N[C@H](C(=O)O)c4cc(O)cc(O)c4-c4cc3ccc4O)[C@H](O[C@@H]3C[C@@](C)(N)[C@H](O)[C@@H](C)O3)c3ccc(cc3)Oc3cc2cc(c3O[C@H]2O[C@@H](CO)[C@H](O)[C@@H](O)[C@@H]2O[C@H]2C[C@](C)(N)[C@@H](O)[C@H](C)O2)Oc2ccc(cc2Cl)[C@H]1O
0.5
2. CN[C@H](CC(C)C)C(=O)N[C@H]1C(=O)N[C@@H](CC(N)=O)C(=O)N[C@H]2C(=O)N[C@H]3C(=O)N[C@H](C(=O)N[C@H](C(=O)NC4C5CC6CC(C5)CC4C6)c4cc(O)cc(O)c4-c4cc3ccc4O)[C@H](O[C@@H]3C[C@@](C)(N)[C@H](O)[C@@H](C)O3)c3ccc(cc3)Oc3cc2cc(c3O[C@H]2O[C@@H](CO)[C@H](O)[C@@H](O)[C@@H]2O[C@H]2C[C@](C)(N)[C@@H](O)[C@H](C)O2)Oc2ccc(cc2Cl)[C@H]1O (stereo partly specified)
1
3. CN[C@H](CC(C)C)C(=O)N[C@H]1C(=O)N[C@@H](CC(N)=O)C(=O)N[C@H]2C(=O)N[C@H]3C(=O)N[C@H](C(=O)N[C@H](C(=O)NCC4C5CC6CC(C5)CC4C6)c4cc(O)cc(O)c4-c4cc3ccc4O)[C@H](O[C@@H]3C[C@@](C)(N)[C@H](O)[C@@H](C)O3)c3ccc(cc3)Oc3cc2cc(c3O[C@H]2O[C@@H](CO)[C@H](O)[C@@H](O)[C@@H]2O[C@H]2C[C@](C)(N)[C@@H](O)[C@H](C)O2)Oc2ccc(cc2Cl)[C@H]1O (stereo partly specified)
1
4. CN[C@H](CC(C)C)C(=O)N[C@H]1C(=O)N[C@@H](CC(N)=O)C(=O)N[C@H]2C(=O)N[C@H]3C(=O)N[C@H](C(=O)N[C@H](C(=O)O)c4cc(O)cc(O)c4-c4cc3ccc4O)[C@H](O)c3ccc(c(Cl)c3)Oc3cc2cc(c3O[C@@H]2O[C@H](CO)[C@@H](O)[C@H](O)[C@H]2O[C@H]2C[C@](C)(N)[C@H](O)[C@H](C)O2)Oc2ccc(cc2Cl)[C@H]1O
1
5. CN[C@H](CC(C)C)C(=O)N[C@H]1C(=O)N[C@@H](CC(N)=O)C(=O)N[C@H]2C(=O)N[C@H]3C(=O)N[C@H](C(=O)N[C@H](C(=O)NC(C)C4C5CC6CC(C5)CC4C6)c4cc(O)cc(O)c4-c4cc3ccc4O)[C@H](O[C@@H]3C[C@@](C)(N)[C@H](O)[C@@H](C)O3)c3ccc(cc3)Oc3cc2cc(c3O[C@H]2O[C@@H](CO)[C@H](O)[C@@H](O)[C@@H]2O[C@H]2C[C@](C)(N)[C@@H](O)[C@H](C)O2)Oc2ccc(cc2Cl)[C@H]1O (stereo partly specified)
1
6. CN[C@H](CC(C)C)C(=O)N[C@H]1C(=O)N[C@@H](CC(N)=O)C(=O)N[C@H]2C(=O)N[C@H]3C(=O)N[C@H](C(=O)N[C@H](C(=O)NC45CC6CC(CC(C6)C4)C5)c4cc(O)cc(O)c4-c4cc3ccc4O)[C@H](O[C@@H]3C[C@@](C)(N)[C@H](O)[C@@H](C)O3)c3ccc(cc3)Oc3cc2cc(c3O[C@H]2O[C@@H](CO)[C@H](O)[C@@H](O)[C@@H]2O[C@H]2C[C@](C)(N)[C@@H](O)[C@H](C)O2)Oc2ccc(cc2Cl)[C@H]1O
0.5

====

MIC reference
test system: Enterococcus faecium; experiment: Antimicrobial activity against vancomycin-resistant Enterococcus faecium 569 isolate; type: functional
assay endpoint: MIC (mg/L)

1) CN[C@H](CC(C)C)C(=O)N[C@H]1C(=O)N[C@@H](CC(N)=O)C(=O)N[C@H]2C(=O)N[C@H]3C(=O)N[C@H](C(=O)N[C@H](C(=O)NCC4C5CC6CC(C5)CC4C6)c4cc(O)cc(O)c4-c4cc3ccc4O)[C@H](O[C@@H]3C[C@@](C)(N)[C@H](O)[C@@H](C)O3)c3ccc(cc3)Oc3cc2cc(c3O[C@H]2O[C@@H](CO)[C@H](O)[C@@H](O)[C@@H]2O[C@H]2C[C@](C)(N)[C@@H](O)[C@H](C)O2)Oc2ccc(cc2Cl)[C@H]1O (some centres not stated)
16
2) CN[C@H](CC(C)C)C(=O)N[C@H]1C(=O)N[C@@H](CC(N)=O)C(=O)N[C@H]2C(=O)N[C@H]3C(=O)N[C@H](C(=O)N[C@H](C(=O)NC4C5CC6CC(C5)CC4C6)c4cc(O)cc(O)c4-c4cc3ccc4O)[C@H](O[C@@H]3C[C@@](C)(N)[C@H](O)[C@@H](C)O3)c3ccc(cc3)Oc3cc2cc(c3O[C@H]2O[C@@H](CO)[C@H](O)[C@@H](O)[C@@H]2O[C@H]2C[C@](C)(N)[C@@H](O)[C@H](C)O2)Oc2ccc(cc2Cl)[C@H]1O (some centres not stated)
16
3) CN[C@H](CC(C)C)C(=O)N[C@H]1C(=O)N[C@@H](CC(N)=O)C(=O)N[C@H]2C(=O)N[C@H]3C(=O)N[C@H](C(=O)N[C@H](C(=O)NC45CC6CC(CC(C6)C4)C5)c4cc(O)cc(O)c4-c4cc3ccc4O)[C@H](O[C@@H]3C[C@@](C)(N)[C@H](O)[C@@H](C)O3)c3ccc(cc3)Oc3cc2cc(c3O[C@H]2O[C@@H](CO)[C@H](O)[C@@H](O)[C@@H]2O[C@H]2C[C@](C)(N)[C@@H](O)[C@H](C)O2)Oc2ccc(cc2Cl)[C@H]1O
4
4) CN[C@H](CC(C)C)C(=O)N[C@H]1C(=O)N[C@@H](CC(N)=O)C(=O)N[C@H]2C(=O)N[C@H]3C(=O)N[C@H](C(=O)N[C@H](C(=O)NC4C5CC6CC(C5)CC4C6)c4cc(O)cc(O)c4-c4cc3ccc4O)[C@H](O)c3ccc(c(Cl)c3)Oc3cc2cc(c3O[C@H]2O[C@@H](CO)[C@H](O)[C@@H](O)[C@@H]2O[C@H]2C[C@@](C)(N)C(O)[C@@H](C)O2)Oc2ccc(cc2Cl)[C@H]1O (some centres not stated)
64
5) CN[C@H](CC(C)C)C(=O)N[C@H]1C(=O)N[C@@H](CC(N)=O)C(=O)N[C@H]2C(=O)N[C@H]3C(=O)N[C@H](C(=O)N[C@H](C(=O)NC(C)C4C5CC6CC(C5)CC4C6)c4cc(O)cc(O)c4-c4cc3ccc4O)[C@H](O[C@@H]3C[C@@](C)(N)[C@H](O)[C@@H](C)O3)c3ccc(cc3)Oc3cc2cc(c3O[C@H]2O[C@@H](CO)[C@H](O)[C@@H](O)[C@@H]2O[C@H]2C[C@](C)(N)[C@@H](O)[C@H](C)O2)Oc2ccc(cc2Cl)[C@H]1O (some centres not stated)
16
